measured.target: mouse Pgp (Abcb1a, MDR3) (Mus musculus, UniProt P21447)
Sequence (P21447 whole entry): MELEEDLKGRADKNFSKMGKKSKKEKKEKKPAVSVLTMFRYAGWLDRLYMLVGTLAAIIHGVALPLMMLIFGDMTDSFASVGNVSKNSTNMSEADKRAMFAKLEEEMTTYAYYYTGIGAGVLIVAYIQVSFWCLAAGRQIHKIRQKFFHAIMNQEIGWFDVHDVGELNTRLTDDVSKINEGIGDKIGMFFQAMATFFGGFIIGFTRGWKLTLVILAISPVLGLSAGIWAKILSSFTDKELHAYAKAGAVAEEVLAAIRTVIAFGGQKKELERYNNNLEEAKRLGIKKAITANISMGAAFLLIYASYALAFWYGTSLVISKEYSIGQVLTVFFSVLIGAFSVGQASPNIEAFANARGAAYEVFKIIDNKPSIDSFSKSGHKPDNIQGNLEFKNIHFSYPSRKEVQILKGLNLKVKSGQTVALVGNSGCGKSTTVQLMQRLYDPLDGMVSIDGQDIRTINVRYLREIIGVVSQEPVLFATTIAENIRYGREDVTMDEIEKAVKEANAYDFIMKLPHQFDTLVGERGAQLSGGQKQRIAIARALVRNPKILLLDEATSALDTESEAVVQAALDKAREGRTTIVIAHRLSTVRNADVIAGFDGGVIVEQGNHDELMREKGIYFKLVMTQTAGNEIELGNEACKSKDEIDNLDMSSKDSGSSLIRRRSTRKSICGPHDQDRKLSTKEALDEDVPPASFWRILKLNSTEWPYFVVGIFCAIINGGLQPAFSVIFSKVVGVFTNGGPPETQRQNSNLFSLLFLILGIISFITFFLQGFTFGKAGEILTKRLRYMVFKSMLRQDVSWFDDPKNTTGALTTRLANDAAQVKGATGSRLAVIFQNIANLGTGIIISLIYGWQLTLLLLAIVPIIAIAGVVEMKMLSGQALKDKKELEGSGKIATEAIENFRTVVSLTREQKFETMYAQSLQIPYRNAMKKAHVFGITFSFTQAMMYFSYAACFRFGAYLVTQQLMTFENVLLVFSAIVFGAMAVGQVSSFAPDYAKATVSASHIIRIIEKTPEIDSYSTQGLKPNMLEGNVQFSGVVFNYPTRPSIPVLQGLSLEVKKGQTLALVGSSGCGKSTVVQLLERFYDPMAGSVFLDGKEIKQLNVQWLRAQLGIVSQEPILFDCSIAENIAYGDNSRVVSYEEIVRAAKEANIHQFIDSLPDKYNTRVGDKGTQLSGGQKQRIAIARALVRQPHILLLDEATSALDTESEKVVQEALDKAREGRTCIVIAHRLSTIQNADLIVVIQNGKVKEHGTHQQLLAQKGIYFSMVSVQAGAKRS
assay.text: ATPase assay (Chifflet method), Pgp reconstituted in liposomes
observable: pKi
Scale: pKi equals -log10([C]), with [C] in mol/L.

Query: I would be grateful if you could share the reported pKi for `C=C[C@H]1C[N@@]2CC[C@H]1C[C@@H]2[C@@H](O)c1ccnc2ccc(OC)cc12` .
Reply: 3.88
